procedureSummary: qHTS assay to identify small molecule antagonists of the peroxisome proliferator-activated receptor gamma (PPARg) signaling pathway - cell viability counter screen (AID 743194); further: nearly all actives have a fitted effect of over 55% in size
recordedConditions: PPARg-bla HEK293H viability, CellTiter-Glo luminescence, 17 h, co-treated with 50 nM rosiglitazone; series mostly up to 62.6 µM
Results filed as inconclusive are left out. The source made the active and inactive calls. The call rests on the fitted dose curve; in most records, active means well fitted cell-killing curve with a large enough effect in the repeat runs; inconclusive means weak or mixed curves, or effect the other way; inactive means no such curve, though single readings can be large or run the other way.
Valid outcomes are listed here; reply with one: 1.0 = active, 0.0 = inactive

{"molecule": "CCCCN(CCCC)C(=O)N(CCCC)CCCC", "classification": 0.0}

**Q:** Tell me the assay call for CCCCCCCC/C=C/CCCCCCCC1=NCCN1CCO please.
**A:** 1.0

**Q:** Tell me the assay call for CC(=O)SC[C@@H](Cc1ccccc1)C(=O)NCC(=O)OCc1ccccc1 please.
**A:** 0.0

**Q:** Tell me the assay call for N=C1N=C(N)c2cc3ccccc3cc21 please.
**A:** 1.0

**Q:** Tell me the assay call for CCCCCCCCCCC=O please.
**A:** 0.0

**Q:** Tell me the assay call for Oc1cc2ccccc2c2ccccc12 please.
**A:** 1.0

**Q:** Tell me the assay call for Oc1cccc(-c2c3nc(c(-c4cccc(O)c4)c4ccc([nH]4)c(-c4cccc(O)c4)c4nc(c(-c5cccc(O)c5)c5ccc2[nH]5)CC4)C=C3)c1 please.
**A:** 1.0

**Q:** Tell me the assay call for CSc1ccc(C(=O)c2[nH]c(=O)[nH]c2C)cc1 please.
**A:** 0.0

**Q:** Tell me the assay call for CCC(C)Nc1ccc(NC(C)CC)cc1 (stereo not given) please.
**A:** 1.0

**Q:** Tell me the assay call for CNCc1cc(F)ccc1Oc1ccc(Cl)c(Cl)c1 please.
**A:** 0.0

**Q:** Tell me the assay call for NC(=O)N1C(=O)C(C(=O)c2cc(Cl)cs2)c2cc(F)c(Cl)cc21 (stereo not given) please.
**A:** 1.0

**Q:** Tell me the assay call for Cc1ccc(O)c(C(C)(C)C)c1 please.
**A:** 0.0

**Q:** Tell me the assay call for Cn1cc(C(=O)[C@@H]2CCc3nc[nH]c3C2)c2ccccc21 please.
**A:** 0.0

**Q:** Tell me the assay call for C/C=C(\C)C(=O)OCc1ccccc1 please.
**A:** 0.0

**Q:** Tell me the assay call for CC/C(=C(\c1ccc(O)cc1)c1ccc(OCCN(C)C)cc1)c1ccccc1 please.
**A:** 1.0

**Q:** Tell me the assay call for Oc1ccc2c(c1)-c1ccccc1C2 please.
**A:** 0.0

**Q:** Tell me the assay call for CC(C)(C)NC(=O)[C@@H]1C[C@@H]2CCCC[C@@H]2CN1C[C@@H](O)[C@H](Cc1ccccc1)NC(=O)[C@H](CC(N)=O)NC(=O)c1ccc2ccccc2n1 please.
**A:** 1.0

**Q:** Tell me the assay call for CCCCc1oc2ccc(NS(C)(=O)=O)cc2c1C(=O)c1ccc(OCCCN(CCCC)CCCC)cc1 please.
**A:** 1.0

**Q:** Tell me the assay call for CCCCCCCCCCCCCCCCCC[N+](C)(C)C please.
**A:** 1.0

The measurements presented in this section are drawn from PubChem BioAssay (Tox21).
